B1: CPEB3 Ribozyme (parent)
chain: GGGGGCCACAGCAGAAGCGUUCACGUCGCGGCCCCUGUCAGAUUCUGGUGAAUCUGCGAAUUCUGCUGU

Variants of: B1
Test: self-cleavage, relative activity (ratio to wild type); higher = more cleavage; co-transcriptional
self-cleavage of 0.2 or higher: y. Under 0.2: n.

In: Does the variant G1A U26A have recorded self-cleavage that is 0.2 or more?
Out: n

In: Does the variant C22U U36G have recorded self-cleavage that is 0.2 or more?
Out: n

In: Does the variant A40C G47U have recorded self-cleavage that is 0.2 or more?
Out: y

In: Does the variant G37A A59C have recorded self-cleavage that is 0.2 or more?
Out: y

In: Does the variant U53C U62A have recorded self-cleavage that is 0.2 or more?
Out: y

In: Does the variant U43A A60G have recorded self-cleavage that is 0.2 or more?
Out: y

In: Does the variant G2U U38G have recorded self-cleavage that is 0.2 or more?
Out: n

In: Does the variant A40G U43A have recorded self-cleavage that is 0.2 or more?
Out: y

In: Does the variant U64A C66A have recorded self-cleavage that is 0.2 or more?
Out: y

In: Does the variant A13G C27U have recorded self-cleavage that is 0.2 or more?
Out: n

In: Does the variant U36G G47C have recorded self-cleavage that is 0.2 or more?
Out: y
